- Tested Target: Peroxisome proliferator-activated receptor delta (Mus musculus) (UniProt P35396)
- Sequence (P35396 whole entry, the tested form may be a part): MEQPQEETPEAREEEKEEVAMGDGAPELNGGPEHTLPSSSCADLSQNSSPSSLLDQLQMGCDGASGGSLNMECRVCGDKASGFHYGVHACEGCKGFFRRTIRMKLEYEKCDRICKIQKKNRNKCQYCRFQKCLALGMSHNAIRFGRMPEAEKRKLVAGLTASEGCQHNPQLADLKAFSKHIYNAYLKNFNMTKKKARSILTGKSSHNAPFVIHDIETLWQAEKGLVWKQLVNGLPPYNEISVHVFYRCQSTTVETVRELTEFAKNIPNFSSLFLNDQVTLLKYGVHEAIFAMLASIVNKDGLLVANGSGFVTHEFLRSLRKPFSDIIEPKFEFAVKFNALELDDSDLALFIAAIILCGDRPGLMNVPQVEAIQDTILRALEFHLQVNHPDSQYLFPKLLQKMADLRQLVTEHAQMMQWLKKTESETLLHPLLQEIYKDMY
- Measurement Protocol: Agonist activity at Gal4-fused mouse PPAR-delta ligand binding domain expressed in CHO-K1 cells assessed as receptor transactivation incubated for 24 to 48 hrs by luciferase reporter gene assay relative to control
- Format: cell-based
- Protocol Conditions: time lower 24.0 hrs, time upper […]
Measurement Kind: Emax (%)
// return numeric value only (unit: %, not printed)

Reference set (3 entries):
CC[C@H]1CN(c2nc3ccc(C(F)(F)F)cc3s2)CCN1CCOc1cc(CC(=O)O)ccc1Cl: 31.7
CC(C)C[C@H]1CN(c2nc3ccc(Cl)cc3s2)CCC1CCOc1cc(CC(=O)O)ccc1Cl (some centres undefined): 28.3
Cc1cc(CC(=O)O)cc(CN2CCN(c3nc4ccc(C(F)(F)F)cc4s3)C[C@@H]2C)c1: 22.1

Q: # input compound: `Cc1cc(CC(=O)O)cc(CN2CCN(c3nc4ccc(C(F)(F)F)cc4s3)[C@H](CC(C)C)C2)c1` ; wanted: its Emax
A: 24.8
